Molecular target: T1, Human GDF8 homodimer (mature human Growth and Differentiation Factor-8) (human, UniProt O14793 267-375)
T1 construct: also called hGDF8; myostatin
T1 sequence: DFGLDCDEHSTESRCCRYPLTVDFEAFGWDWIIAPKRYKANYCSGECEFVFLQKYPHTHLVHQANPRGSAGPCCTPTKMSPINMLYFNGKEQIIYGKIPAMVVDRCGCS
Assay: SPR, antibody captured, 25 nM antigen
pKd: −log10 of the molar value.
# maps each entry to its pKd
assayEndpoint: pKd

{"binder": "3A4-3 (antibody, V domains shown) VH: QVQLVQSGGGLVKPGGSLRLSCAASGFIFNTYTMNWVRQAPGKGLEWVSSITSRGTYIFYSDSLKGRFTISRDNANNSLFLQMNSLRVEDTAVYYCSRDRGYTFGPDYWGQGTLVTVSS VL: DIQMTQSPSSLSASVGDRVTITCRASQDIRNDLGWYQQKPGKAPKGLIYAASSLQSGVPSRFSGSGSGTEFTLTISSLQPEDFATYHCLHYDFHPRTFGQGTKVEIK", "assayEndpoint": "pKd", "endpointResult": 8.97}
{"binder": "22-E6 (antibody, V domains shown) VH: QVQLVQSGPGLVKPSETLSLTCTVSGGSIITYSYYWGWIRQPPGKGLEWIGTIHHSGSTYYNPSLKSRVTISVDTSKNQFSLTLSSVTAADTAVYYCARDYYDSSGYYYNWFDPWGQGTMVTVSS VL: AIQMTQSPSSLSASVGDRVTITCRASQGIRNDLGWYQQKPGKAPKRLIYAASSLQSGVPSRFSGSGSGTEFTLTISSLQPEDFATYYCLQHNSSPWTFGQGTKVEIKR", "assayEndpoint": "pKd", "endpointResult": 9.59}
{"binder": "22-G10 (antibody, V domains shown) VH: QVHLKESGPTLVKPTQTLTLTCTFSGFSLSTSGVGVGWIRQPPGKALEWLALIYWNDDKRYSPSLKSRLTITKDTSKNQVVLTMTNMDPVDTATYYCTHTSRYNWHYGFLDYWGQGTTVTVSS VL: AIQMTQSPSSLSASVGDRVTITCRASQGISNYLAWFQQKPGKAPKSLIYAASSLQSGVPSKFSGSGSGTDFTLTISSLQPEDFATYYCQQYNSYPLTFGGGTKVEIKR", "assayEndpoint": "pKd", "endpointResult": 9.60}

Measured values drawn from patent US20160340421A1 for this set.
